Task for the reader: assign each of the following compounds its reported viability, T/C.
Tested on: 349418-098-R-PDC complex spheroid viability;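 note: spheroids exposed to compound for seven days before viability readout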
method notes: Anticancer human tumor 349418-098-R-PDC patient-derived lung adenocarcinoma cell line growth inhibition [RAS]
settings: second compound 0.000949 µM; first compound 0.0316 µM; active compounds read low
Kindly provide the numeric value in % only, without the unit symbol.

Task: Need viability, T/C of CC(Nc1ccc2c(c1)OCCn1cc(N3C(=O)OCC3C(F)F)nc1-2)C(N)=O (centres undefined) + CCn1c(-c2cc(N3CCN(C)CC3)cnc2C(C)OC)c2c3cc(ccc31)-c1csc(n1)CC(NC(=O)C1CC1C)C(=O)N1CCCC(N1)C(=O)OCC(C)(C)C2 , thanks.
Output: 75.9

Task: Need viability, T/C of CC(C)NCC(C(=O)N1CCN(c2ncnc3c2C(C)CC3O)CC1)c1ccc(Cl)cc1 (centres undefined) + CCn1c(-c2cc(N3CCN(C)CC3)cnc2C(C)OC)c2c3cc(ccc31)-c1csc(n1)CC(NC(=O)C1CC1C)C(=O)N1CCCC(N1)C(=O)OCC(C)(C)C2 , thanks.
Output: 97

Task: Need viability, T/C of CC(=O)OC12COC1CC(O)C1(C)C(=O)C(O)C3=C(C)C(OC(=O)C(O)C(NC(=O)OC(C)(C)C)c4ccccc4)CC(O)(C(OC(=O)c4ccccc4)C21)C3(C)C (centres undefined) + CCn1c(-c2cccnc2C(C)OC)c2c3cc(ccc31)N1CCOC(CC(NC(=O)C(C(C)C)N(C)C(=O)C3(F)CCN(C(=O)C#CC(C)(C)N(C)C)CC3)C(=O)N3CCCC(N3)C(=O)OCC(C)(C)C2)C1 , thanks.
Output: 13.4

Task: Need viability, T/C of Cc1nc(N2CCC3(CC2)COC(C)C3N)c(CO)nc1Sc1ccnc(N)c1Cl (centres undefined) + CCn1c(-c2cc(N3CCN(C)CC3)cnc2C(C)OC)c2c3cc(ccc31)-c1csc(n1)CC(NC(=O)C1CC1C)C(=O)N1CCCC(N1)C(=O)OCC(C)(C)C2 , thanks.
Output: 90.4
